Target: NLRP3 inflammasome (Mus musculus)
Sequence (Q8R4B8 whole entry): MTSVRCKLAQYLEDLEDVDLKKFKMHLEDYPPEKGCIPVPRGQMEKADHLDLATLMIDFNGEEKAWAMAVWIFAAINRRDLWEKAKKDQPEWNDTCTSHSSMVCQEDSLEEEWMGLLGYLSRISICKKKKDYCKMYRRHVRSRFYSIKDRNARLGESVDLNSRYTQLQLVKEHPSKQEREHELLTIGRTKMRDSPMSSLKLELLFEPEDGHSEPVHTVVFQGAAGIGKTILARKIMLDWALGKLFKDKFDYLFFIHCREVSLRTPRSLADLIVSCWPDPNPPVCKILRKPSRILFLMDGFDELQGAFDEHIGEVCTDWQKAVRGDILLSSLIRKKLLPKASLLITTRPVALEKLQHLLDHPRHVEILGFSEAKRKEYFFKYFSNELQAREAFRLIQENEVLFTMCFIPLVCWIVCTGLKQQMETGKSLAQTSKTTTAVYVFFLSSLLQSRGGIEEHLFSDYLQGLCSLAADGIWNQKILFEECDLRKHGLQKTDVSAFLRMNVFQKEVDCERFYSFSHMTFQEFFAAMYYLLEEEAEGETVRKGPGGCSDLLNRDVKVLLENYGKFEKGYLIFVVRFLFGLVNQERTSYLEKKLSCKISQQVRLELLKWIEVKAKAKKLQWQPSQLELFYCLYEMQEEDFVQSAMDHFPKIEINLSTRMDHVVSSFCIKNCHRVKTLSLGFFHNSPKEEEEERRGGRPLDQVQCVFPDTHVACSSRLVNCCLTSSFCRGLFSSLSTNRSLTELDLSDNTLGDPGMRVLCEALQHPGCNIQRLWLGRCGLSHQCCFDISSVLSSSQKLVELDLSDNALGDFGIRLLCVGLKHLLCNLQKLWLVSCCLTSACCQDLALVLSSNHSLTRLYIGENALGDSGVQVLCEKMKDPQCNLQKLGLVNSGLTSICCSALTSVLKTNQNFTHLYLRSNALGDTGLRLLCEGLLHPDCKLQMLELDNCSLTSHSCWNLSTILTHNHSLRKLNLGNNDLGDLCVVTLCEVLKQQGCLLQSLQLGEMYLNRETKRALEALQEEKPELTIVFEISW
Assay: Inhibition of IL-1β release, NLRP3 inflammasome activation assay in BMDM
Format: cell-based
Conditions: inhibition of IL-1β release, uM, read-out: Avg. IL-1β IC50 Murine BMDM
Measured quantity: IC50

Ask | Fill in the blank: the reported IC50 of `O=C(Nc1ccc2ncccc2c1)NS(=O)(=O)c1cccc(C2(C(F)(F)F)N=N2)c1` is ____.
Reply | > 50 µM

---

List of MRT inf values.
Test: Single dose pharmacokinetic study in mice (iv 4 mg/Kg, po 20 mg/Kg), plasma concentration post-dosing
Format: in vivo, mouse
Conditions: male, C57BL/6, mouse, plasma, po, 20 mg/kg, mouse, PO 20 mg/Kg, mean of 3 mice; read-out: MRT0-inf, Mean PO
Supply the numeric figure in h, leaving out any unit text.

Ask | Fill in the blank: the reported MRT inf of `CC(C)n1ccc(S(=O)(=O)NC(=O)Nc2c3c(cc4c2CCC4)CCC3)n1` is ____.
Reply | 7.52

New cases:
Ask | Fill in the blank: the reported MRT inf of CC(C)(O)c1coc(S(=O)(=O)NC(=O)Nc2c3c(cc4c2CCC4)CCC3)c1 [MCC_000950_016, reference compound] is ____.
Reply | 3.63
